Hi there, I'd appreciate the recorded percent inhibition of AR, 46.9 nM for every entry that follows.
System: AR mRNA
TEST DETAILS: Dose-dependent antisense inhibition of human AR in HuVEC cells (electroporation, qRT-PCR RTS3559, IC50)
Format: cell-based
EXPERIMENTAL CONTEXT: Table 30; 46.9 nM, HuVEC, electroporation, approximately 16 hours
Description: After a treatment period of approximately 16 hours, RNA was isolated from the cells and AR mRNA levels were measured by quantitative real-time PCR. Human AR primer probe set RTS3559 was used to measure mRNA levels. AR mRNA levels were adjusted according to total RNA content, as measured by RIBOGREEN®. […] After a treatment period of approximately 16 hours, RNA was isolated from the cells and AR mRNA levels were measured by quantitative real-time PCR. […]
Oligonucleotides are written 5' to 3', each unit as a sugar letter and its base; * is a phosphorothioate linkage, no mark a phosphodiester; rarer units and linkages stand in square brackets, end groups in braces. Plain capitals give the bases only. k = constrained ethyl (cEt); [5mC] = 5-methylcytosine; d = 2'-deoxy (DNA)
Report only the number, with the unit % understood.

INPUT: // percent inhibition of AR, 46.9 nM lookup, key: 583637 (antisense kA*kT*k[5mC]*dT*d[5mC]*dT*dG*dG*d[5mC]*dT*d[5mC]*d[5mC]*dG*k[5mC]*kA*k[5mC]) [compound 583637]
OUTPUT: 22

INPUT: // percent inhibition of AR, 46.9 nM lookup, key: 583692 (antisense kG*kT*kG*dA*dT*dG*dA*dT*dG*d[5mC]*dG*dG*dT*kA*kG*kT) [compound 583692]
OUTPUT: 8

INPUT: // percent inhibition of AR, 46.9 nM lookup, key: 583734 (antisense kT*k[5mC]*kA*d[5mC]*dT*dT*d[5mC]*dG*d[5mC]*dG*d[5mC]*dA*d[5mC]*kG*k[5mC]*kT) [compound 583734]
OUTPUT: 29

INPUT: // percent inhibition of AR, 46.9 nM lookup, key: 549372 (kA*kA*kG*dT*dT*dG*dT*dA*dG*dT*dA*dG*dT*k[5mC]*kG*k[5mC]) [compound 549372]
OUTPUT: 13

INPUT: // percent inhibition of AR, 46.9 nM lookup, key: 583738 (antisense kG*kT*kT*d[5mC]*dT*dG*dG*dA*dT*d[5mC]*dA*d[5mC]*dT*kT*k[5mC]*kG) [compound 583738]
OUTPUT: 16

INPUT: // percent inhibition of AR, 46.9 nM lookup, key: 583689 (antisense kA*kT*kG*d[5mC]*dG*dG*dT*dA*dG*dT*d[5mC]*dG*d[5mC]*kT*kG*k[5mC]) [compound 583689]
OUTPUT: 20

INPUT: // percent inhibition of AR, 46.9 nM lookup, key: 583745 (antisense k[5mC]*kG*k[5mC]*dT*d[5mC]*dG*d[5mC]*dG*dG*d[5mC]*d[5mC]*dT*d[5mC]*kT*kG*kG) [compound 583745]
OUTPUT: 19

INPUT: // percent inhibition of AR, 46.9 nM lookup, key: 583642 (antisense kA*kG*kT*dG*dT*d[5mC]*d[5mC]*dA*d[5mC]*dT*dG*dA*dA*kG*kT*kA) [compound 583642]
OUTPUT: 18

INPUT: // percent inhibition of AR, 46.9 nM lookup, key: 583667 (antisense k[5mC]*kG*k[5mC]*dT*d[5mC]*dT*dG*dA*d[5mC]*dA*dG*d[5mC]*d[5mC]*kT*k[5mC]*kA) [compound 583667]
OUTPUT: 35

INPUT: // percent inhibition of AR, 46.9 nM lookup, key: 549458 (kG*kT*kT*dG*dA*dT*dT*dT*dA*dA*dT*dG*dG*kT*kT*kG) [compound 549458]
OUTPUT: 22

INPUT: // percent inhibition of AR, 46.9 nM lookup, key: 583736 (antisense kT*kG*kG*dA*dT*d[5mC]*dA*d[5mC]*dT*dT*d[5mC]*dG*d[5mC]*kG*k[5mC]*kA) [compound 583736]
OUTPUT: 21

INPUT: // percent inhibition of AR, 46.9 nM lookup, key: 583709 (antisense kG*k[5mC]*kT*dT*dG*dG*d[5mC]*dT*dG*dA*dA*dT*d[5mC]*kT*kT*k[5mC]) [compound 583709]
OUTPUT: 8

INPUT: // percent inhibition of AR, 46.9 nM lookup, key: 583687 (antisense kG*kG*kT*dA*dG*dT*d[5mC]*dG*d[5mC]*dT*dG*d[5mC]*dA*kG*k[5mC]*kT) [compound 583687]
OUTPUT: 34

INPUT: // percent inhibition of AR, 46.9 nM lookup, key: 583712 (antisense k[5mC]*k[5mC]*kT*dT*dG*dA*dG*d[5mC]*dT*dT*dG*dG*d[5mC]*kT*kG*kA) [compound 583712]
OUTPUT: 15

INPUT: // percent inhibition of AR, 46.9 nM lookup, key: 583688 (antisense kG*k[5mC]*kG*dG*dT*dA*dG*dT*d[5mC]*dG*d[5mC]*dT*dG*k[5mC]*kA*kG) [compound 583688]
OUTPUT: 3

INPUT: // percent inhibition of AR, 46.9 nM lookup, key: 583727 (antisense kG*kA*kT*dT*d[5mC]*dT*dG*dG*dA*dA*dA*dG*d[5mC]*kT*k[5mC]*k[5mC]) [compound 583727]
OUTPUT: 18

INPUT: // percent inhibition of AR, 46.9 nM lookup, key: 583728 (antisense kG*k[5mC]*kT*d[5mC]*dT*dG*dG*dA*dA*d[5mC]*dA*dG*dA*kT*kT*k[5mC]) [compound 583728]
OUTPUT: 9

* * *

Tested on: total AR mRNA
TEST DETAILS: Total (full-length) AR mRNA in C4-2B MR cells, free uptake
Format: cell-based, human
EXPERIMENTAL CONTEXT: 1.00 μM, free uptake, 24 hrs
Oligonucleotides are written 5' to 3', each unit as a sugar letter and its base; * is a phosphorothioate linkage, no mark a phosphodiester; rarer units and linkages stand in square brackets, end groups in braces. Plain capitals give the bases only. e = 2'-O-(2-methoxyethyl) (MOE); l = locked nucleic acid (LNA); k = constrained ethyl (cEt); [5mC] = 5-methylcytosine; d = 2'-deoxy (DNA)
RESULT TYPE: Percent inhibition of full-length AR mRNA in C4-2B MR cells (%)
Report only the number, with the unit % understood.

INPUT: Write down the reported Percent inhibition of full-length AR mRNA in C4-2B MR cells of 549458 (kG*kT*kT*dG*dA*dT*dT*dT*dA*dA*dT*dG*dG*kT*kT*kG) [compound 549458] , test system: total AR mRNA.
OUTPUT: 94

INPUT: Write down the reported Percent inhibition of full-length AR mRNA in C4-2B MR cells of 554221 (ACCAAGTTTCTTCAGC; sugars from the 5' end l3 d10 l3, all phosphorothioate, methylation of C not given here) [compound 554221] , test system: total AR mRNA.
OUTPUT: 0

INPUT: Write down the reported Percent inhibition of full-length AR mRNA in C4-2B MR cells of 549434 (k[5mC]*kT*kA*dA*dA*d[5mC]*dT*dT*d[5mC]*d[5mC]*d[5mC]*dG*dT*kG*kG*k[5mC]) [compound 549434] , test system: total AR mRNA.
OUTPUT: 66

INPUT: Write down the reported Percent inhibition of full-length AR mRNA in C4-2B MR cells of 549372 (kA*kA*kG*dT*dT*dG*dT*dA*dG*dT*dA*dG*dT*k[5mC]*kG*k[5mC]) [compound 549372] , test system: total AR mRNA.
OUTPUT: 88

INPUT: Write down the reported Percent inhibition of full-length AR mRNA in C4-2B MR cells of 347526 (TCTTATGTTTCCGAACCGTT; sugars from the 5' end e5 d10 e5, backbone and methylation of C not given here) [compound 347526] , test system: total AR mRNA.
OUTPUT: 31

* * *

Tested on: AR mRNA
TEST DETAILS: Dose-dependent antisense inhibition of human AR in HuVEC cells (electroporation, qRT-PCR RTS3559, IC50)
Assay type: cell-based
EXPERIMENTAL CONTEXT: Table 32; 3000.0 nM, HuVEC, electroporation, approximately 16 hours
Oligonucleotides are written 5' to 3', each unit as a sugar letter and its base; * is a phosphorothioate linkage, no mark a phosphodiester; rarer units and linkages stand in square brackets, end groups in braces. Plain capitals give the bases only. k = constrained ethyl (cEt); [5mC] = 5-methylcytosine; d = 2'-deoxy (DNA)
Hi there, I'd appreciate the recorded percent inhibition of AR, 3000.0 nM for every entry that follows.
Report only the number, with the unit % understood.

INPUT: Write down the reported percent inhibition of AR, 3000.0 nM of 583835 (kG*kA*kA*dG*d[5mC]*dT*dG*dT*dT*d[5mC]*d[5mC]*d[5mC]*d[5mC]*kT*kG*kG; antisense) [compound 583835] , test system: AR mRNA.
OUTPUT: 88

INPUT: Write down the reported percent inhibition of AR, 3000.0 nM of 583787 (antisense kG*kG*kT*dG*d[5mC]*dT*dG*dG*d[5mC]*d[5mC]*dT*d[5mC]*dG*k[5mC]*kT*k[5mC]) [compound 583787] , test system: AR mRNA.
OUTPUT: 74

INPUT: Write down the reported percent inhibition of AR, 3000.0 nM of 583802 (antisense k[5mC]*kT*k[5mC]*dG*d[5mC]*dT*d[5mC]*dT*d[5mC]*d[5mC]*d[5mC]*dG*d[5mC]*kT*kG*k[5mC]) [compound 583802] , test system: AR mRNA.
OUTPUT: 60

INPUT: Write down the reported percent inhibition of AR, 3000.0 nM of 583797 (antisense kT*k[5mC]*kG*dG*dA*dT*dA*d[5mC]*dT*dG*d[5mC]*dT*dT*k[5mC]*k[5mC]*kT) [compound 583797] , test system: AR mRNA.
OUTPUT: 82

INPUT: Write down the reported percent inhibition of AR, 3000.0 nM of 583865 (kT*kT*k[5mC]*dA*dG*dT*dG*d[5mC]*dT*d[5mC]*dT*dT*dG*k[5mC]*k[5mC]*kT; antisense) [compound 583865] , test system: AR mRNA.
OUTPUT: 85

INPUT: Write down the reported percent inhibition of AR, 3000.0 nM of 583881 (k[5mC]*k[5mC]*kT*dT*dT*dG*dG*dT*dG*dT*dA*dA*d[5mC]*k[5mC]*kT*k[5mC]; antisense) [compound 583881] , test system: AR mRNA.
OUTPUT: 91

The reported measurements were obtained from patent USRE48461E1.
